- Target of assay: CYP1A2 (Homo sapiens, UniProt P05177)
- Sequence (P05177 1-516): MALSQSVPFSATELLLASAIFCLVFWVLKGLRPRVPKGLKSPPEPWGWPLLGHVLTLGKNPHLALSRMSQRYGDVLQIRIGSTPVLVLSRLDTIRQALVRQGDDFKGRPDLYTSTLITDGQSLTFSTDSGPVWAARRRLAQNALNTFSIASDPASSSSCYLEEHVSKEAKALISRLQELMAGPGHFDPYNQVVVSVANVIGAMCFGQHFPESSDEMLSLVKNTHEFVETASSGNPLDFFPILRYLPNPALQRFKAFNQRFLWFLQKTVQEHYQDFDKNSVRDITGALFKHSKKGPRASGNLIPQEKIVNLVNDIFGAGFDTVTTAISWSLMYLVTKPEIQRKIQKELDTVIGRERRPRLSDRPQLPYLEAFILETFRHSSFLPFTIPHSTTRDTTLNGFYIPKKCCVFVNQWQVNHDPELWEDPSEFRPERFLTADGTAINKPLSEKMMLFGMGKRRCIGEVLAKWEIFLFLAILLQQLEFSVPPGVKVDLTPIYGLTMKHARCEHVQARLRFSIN
- Assay: Inhibition of cytochrome P450 (P450-Glo) CYP1A2
- Experimental setup: human recombinant enzyme, read-out: CYP450 Inhibition (IC50 microM) 1A2
Measurement label: IC50

// query Can you share its IC50? I mean this compound: Cc1nc2ncnn2c2c1CCN2[C@H](c1ccc(F)cc1)C(F)(F)F
// result > 20 µM

// query What does the record list as IC50 for Cc1nc2ncnn2c2c1CCN2[C@@H](C)c1ccc(F)cc1 ?
// result 99 µM

// query Quick one: IC50 of Cc1nc2ncnn2c2c1CCN2[C@@H](C)c1ccccc1 ?
// result > 100 µM

// query What IC50 value was documented for this compound, Cc1nc2ncnn2c2c1CCN2[C@H](c1ccccc1)C(F)(F)F ?
// result > 20 µM
